Experiment: Selectivity index, ratio of CC50 for human C8166 cells to EC50 for HIV1 3B
Type: toxicity, cell-based
Details: read-out: Ratio CC50/EC50
PROPERTY MEASURED: selectivity ratio
Enter a number only.

Example results:
>>> reported_result("COc1ccc(S(=O)(=O)N(CC(C)C)C[C@@H](O)[C@H](Cc2ccc(-c3ccc(SC)cc3)cc2)NC(=O)O[C@H]2CCOC2)cc1")
34800
>>> reported_result("COc1ccc(S(=O)(=O)N(CC(C)C)C[C@@H](O)[C@H](Cc2ccc(-c3ccc(OC)c(C)c3)cc2)NC(=O)O[C@H]2CCOC2)cc1")
46800

Which selectivity ratio is listed for COc1ccc(S(=O)(=O)N(CC(C)C)C[C@@H](O)[C@H](Cc2ccc(-c3ccc(C(=O)O)cc3)cc2)NC(=O)O[C@H]2CCOC2)cc1 ?
25300

###

// Protease (Human immunodeficiency virus 1, UniProt Q9YQ12) pKi records
Schema: pKi number; meaning minus log10 of the concentration expressed in molar units.

Example results:
>>> reported_result("COc1ccc(S(=O)(=O)N(CC(C)C)C[C@@H](O)[C@H](Cc2ccc(-c3ccc(F)cc3)cc2)NC(=O)O[C@H]2CCOC2)cc1")
8.24
>>> reported_result("COc1ccc(S(=O)(=O)N(CC(C)C)C[C@@H](O)[C@H](Cc2ccc(-c3ccc(OC)c(C)c3)cc2)NC(=O)O[C@H]2CCOC2)cc1")
8.74
>>> reported_result("COc1ccc(S(=O)(=O)N(CC(C)C)C[C@@H](O)[C@H](Cc2ccc(-c3ccc(C(C)=O)cc3)cc2)NC(=O)O[C@H]2CCOC2)cc1")
8.24
>>> reported_result("COc1ccc(S(=O)(=O)N(CC(C)C)C[C@@H](O)[C@H](Cc2ccc(-c3ccc(Cl)cc3)cc2)NC(=O)O[C@H]2CCOC2)cc1")
8.19

Which pKi is listed for CC(C)CN(C[C@@H](O)[C@H](Cc1ccc(-c2ccccc2)cc1)NC(=O)O[C@H]1CCOC1)S(=O)(=O)c1ccc(N)cc1 ?
8.70

Which pKi is listed for COc1ccc(S(=O)(=O)N(CC(C)C)C[C@@H](O)[C@H](Cc2ccc(-c3ccncc3)cc2)NC(=O)O[C@H]2CCOC2)cc1 ?
8.42

Which pKi is listed for COC(=O)c1cccc(-c2ccc(C[C@H](NC(=O)O[C@H]3CCOC3)[C@H](O)CN(CC(C)C)S(=O)(=O)c3ccc(OC)cc3)cc2)c1 ?
8.80

Which pKi is listed for COc1ccc(S(=O)(=O)N(CC(C)C)C[C@@H](O)[C@H](Cc2ccc(-c3ccsc3)cc2)NC(=O)O[C@H]2CCOC2)cc1 ?
8.46

###

Item-by-item account of selectivity ratio
Assay: Selectivity index, ratio of CC50 for human C8166 cells to EC50 for HIV1 3B
Format: toxicity, cell-based
Conditions: read-out: Ratio CC50/EC50

Which selectivity ratio is listed for COc1ccc(S(=O)(=O)N(CC(C)C)C[C@@H](O)[C@H](Cc2ccc(-c3cccnc3)cc2)NC(=O)O[C@H]2CCOC2)cc1 ?
68200

Which selectivity ratio is listed for COc1ccc(S(=O)(=O)N(CC(C)C)C[C@@H](O)[C@H](Cc2ccc(-c3ccc(Cl)cc3)cc2)NC(=O)O[C@H]2CCOC2)cc1 ?
53600

Which selectivity ratio is listed for COC(=O)c1cccc(-c2ccc(C[C@H](NC(=O)O[C@H]3CCOC3)[C@H](O)CN(CC(C)C)S(=O)(=O)c3ccc(OC)cc3)cc2)c1 ?
54900

Which selectivity ratio is listed for CC(C)CN(C[C@@H](O)[C@H](Cc1ccc(-c2ccccc2)cc1)NC(=O)O[C@H]1CCOC1)S(=O)(=O)c1ccc(N)cc1 ?
14200

Which selectivity ratio is listed for COc1ccc(S(=O)(=O)N(CC(C)C)C[C@@H](O)[C@H](Cc2ccc(-c3ccc(OC(F)(F)F)cc3)cc2)NC(=O)O[C@H]2CCOC2)cc1 ?
28100
